Catalogue of viscosity values
Assay: xn = mol fraction of the nth substance listed
Details: 298.15 K; 101 kPa; x2 = 0.9
± gives the uncertainty stated by the source.
Please give the number followed by its unit.

Study these solved cases before continuing.
INSERT INTO assay_data (compound, test_result) VALUES
  ('CCCCCCCO + CCCCO', '2.919 ± 0.026 mPa·s'),
  ('CCCCCCCO + CCO', '1.403 ± 0.012 mPa·s');

Reported viscosity for CCCCCCCO + CCCO was 2.189 ± 0.02 mPa·s

// viscosity lookup, compound = CCCCCCCO + CO , result: 0.8131 ± 0.0072 mPa·s
